# tested system: delF508-CFTR (Homo sapiens, UniProt P13569, DEL508-508)
# Construct: Unaltered CFBE41o− cells were used as the model; endogenous in cells
# Sequence (P13569 with tags, fused parts or gaps DEL508-508): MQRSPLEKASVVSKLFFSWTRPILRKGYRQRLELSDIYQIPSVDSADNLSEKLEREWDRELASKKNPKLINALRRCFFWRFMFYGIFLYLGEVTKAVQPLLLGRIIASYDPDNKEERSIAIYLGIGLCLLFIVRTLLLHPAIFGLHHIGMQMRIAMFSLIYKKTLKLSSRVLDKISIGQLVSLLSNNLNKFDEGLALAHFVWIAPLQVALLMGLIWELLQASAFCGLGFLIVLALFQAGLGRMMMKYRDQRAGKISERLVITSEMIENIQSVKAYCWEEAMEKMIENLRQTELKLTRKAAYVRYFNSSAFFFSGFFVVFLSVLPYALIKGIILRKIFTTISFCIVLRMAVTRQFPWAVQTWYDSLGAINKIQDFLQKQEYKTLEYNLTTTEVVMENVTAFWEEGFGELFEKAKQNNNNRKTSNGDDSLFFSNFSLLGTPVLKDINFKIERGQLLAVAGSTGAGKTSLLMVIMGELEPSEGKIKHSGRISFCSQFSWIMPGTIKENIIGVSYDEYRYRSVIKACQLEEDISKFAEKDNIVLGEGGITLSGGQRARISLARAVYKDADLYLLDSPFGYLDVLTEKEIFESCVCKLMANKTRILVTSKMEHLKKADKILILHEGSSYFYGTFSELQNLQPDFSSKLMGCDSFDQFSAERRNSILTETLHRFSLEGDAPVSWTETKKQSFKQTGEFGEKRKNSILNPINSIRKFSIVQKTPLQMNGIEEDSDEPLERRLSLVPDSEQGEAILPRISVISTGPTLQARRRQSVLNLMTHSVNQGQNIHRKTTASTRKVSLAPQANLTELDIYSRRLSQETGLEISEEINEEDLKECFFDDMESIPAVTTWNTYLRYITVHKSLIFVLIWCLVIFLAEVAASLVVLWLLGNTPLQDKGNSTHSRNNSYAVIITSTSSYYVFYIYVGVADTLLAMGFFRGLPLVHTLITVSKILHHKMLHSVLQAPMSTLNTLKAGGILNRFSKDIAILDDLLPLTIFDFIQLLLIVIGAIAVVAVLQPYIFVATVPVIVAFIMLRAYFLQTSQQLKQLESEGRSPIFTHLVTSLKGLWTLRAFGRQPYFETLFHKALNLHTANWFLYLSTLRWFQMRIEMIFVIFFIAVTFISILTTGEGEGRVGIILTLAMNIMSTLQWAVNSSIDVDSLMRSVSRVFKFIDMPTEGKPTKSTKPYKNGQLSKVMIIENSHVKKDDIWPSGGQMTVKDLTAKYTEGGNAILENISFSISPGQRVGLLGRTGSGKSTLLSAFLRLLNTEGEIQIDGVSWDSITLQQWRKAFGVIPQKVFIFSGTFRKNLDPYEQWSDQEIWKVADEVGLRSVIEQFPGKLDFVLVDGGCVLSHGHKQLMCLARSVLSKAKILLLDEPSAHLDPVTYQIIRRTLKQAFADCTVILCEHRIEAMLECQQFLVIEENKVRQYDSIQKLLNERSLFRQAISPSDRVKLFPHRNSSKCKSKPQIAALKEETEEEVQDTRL
# assay procedure: SPQ halide-sensitive fluorescence dye profiling assay (rescue of halide efflux)
# test context: SPQ assay, 8-point concentration-response curve, CFBE41o− cells
In this section, each of the molecules is paired with its reported EC50.
// note: answer is a bare numeric in nM

CCCOc1cc(-c2c(C)nn3c(C)c(C(=O)O)nnc23)ccc1Cl    2300
Cc1nn2c(N)c(C(=O)O)nnc2c1-c1ccc(Cl)c(Cl)c1    830
Cc1nn2c(C)c(C(=O)O)nnc2c1-c1ccc(O)cc1    17800
Cc1nn2c(C)c(C(=O)O)nnc2c1C1CCCCC1    3400
COc1ccc(-c2c(C)nn3c(C)c(C(=O)O)nnc23)cc1OC    9900

Task: # get_value(readout='EC50', item= "Cc1nn2c(C)c(C(=O)OC(C)(C)C)nnc2c1-c1ccc(Cl)c(Cl)c1" )
Output: 580

Task: Follow-up item: "Cc1nn2c(C)c(C(=O)O)nnc2c1-c1ccc(OC2CCCC2)cc1"
Output: 1100

----------
# tested system: delF508-CFTR (Homo sapiens, UniProt P13569, DEL508-508)
# Construct: Unaltered CFBE41o− cells were used as the model; endogenous in cells; host or cells: CFBE41o- human CF bronchial epithelial cells (delF508 homozygous, not overexpressing)
# assay procedure: SPQ halide-sensitive fluorescence dye profiling assay (rescue of halide efflux)
# Format: cell-based
# test context: compared to VX-809 at 3 μM
endpoint label: Efficacy Comparison to 3 μM VX-809

Here's what some known entries look like.
CCOC(=O)c1nnc2c(-c3ccc(Cl)cc3)cnn2c1C    7-fold greater than VX-809
CCOc1cc(-c2c(C)nn3c(C)c(C(=O)O)nnc23)ccc1Cl    15-fold greater than VX-809
Cc1nn2c(C)c(C(=O)OC(C)C)nnc2c1-c1ccc(Cl)cc1    2.5-fold greater than VX-809
CCOC(=O)c1nnc2c(-c3ccc(OCC)cc3)c(C)nn2c1C    Equivalent to VX-809
Cc1c(C(=O)O)nnc2c(-c3ccc(Cl)cc3)cnn12    10-fold greater than VX-809
Cc1nn2c(C)c(C(=O)NS(C)(=O)=O)nnc2c1-c1ccc(Cl)c(Cl)c1    Equivalent to VX-809
Cc1nn2c(C)c(C(=O)O)nnc2c1-c1cc(Cl)cc(Cl)c1    12-fold greater than VX-809
COc1ccc(-c2c(C)nn3c(C)c(C(=O)O)nnc23)cc1OC    3-fold greater than VX-809

# next compound below
Task: Test system delF508-CFTR (Homo sapiens, UniProt P13569, DEL508-508); read-out Efficacy Comparison to 3 μM VX-809; what value for "CCS(=O)(=O)Cc1nnc2c(-c3ccc(Cl)c(Cl)c3)c(C)nn2c1C" ?
Output: Equivalent to VX-809

----------
# tested system: delF508-CFTR (Homo sapiens, UniProt P13569, DEL508-508)
# Construct: Unaltered CFBE41o− cells were used as the model; endogenous in cells
# assay procedure: SPQ halide-sensitive fluorescence dye profiling assay (rescue of halide efflux)
# test context: SPQ assay, 8-point concentration-response curve, CFBE41o− cells
Listing: EC50 of selected compounds
Record the value in µM, omitting the unit from your answer.

Below, each entry is followed by its recorded EC50 result.
CCOc1ccc(-c2c(C)nn3c(C)c(C(=O)O)nnc23)cc1 [Compound C-7]    7
COc1ccc(Cn2nc(-c3ccc(Cl)c(Cl)c3)c3ccc(C(=O)O)nc32)cc1 [Compound C-66.2]    11
Cc1nn2c(C)c(C(=O)O)nnc2c1Cc1ccccc1 [Compound C-52]    20
CCOc1cc(-c2c(C)nn3c(C)c(C(=O)O)nnc23)ccc1Cl [Compound C-59]    0.16
COc1cc(-c2c(C)nn3c(C)c(C(=O)O)nnc23)ccc1Cl [Compound C-59.1]    10.5

Task: Item Cc1c(C(=O)O)nnc2c(-c3ccc(Cl)cc3)cnn12 [Compound C-2] has what recorded EC50?
Output: 1

Task: Note, next up: Cc1nn2cc(C(=O)O)nnc2c1-c1ccc(Cl)cc1 [Compound C-3]
Output: 11.5

Task: Proceed to Cc1nn2c(C)c(C(=O)O)nnc2c1-c1ccc2c(c1)OCO2 [Compound C-57]
Output: 12
